# Target: purified human Hsp90
# Construct: purified human Hsp90 (Stressgen, SPP-770)
# Experimental protocol: Hsp90 binding assay: displacement of BODIPY-labeled geldanamycin measured by fluorescence polarization
# Conditions used: BODIPY-GM 10 nM, Hsp90 30 nM, overnight at room temperature; read-out: GM displacement from purified Hsp90 measured by FP IC 50
Hi! Could you tag entries with IC50 below 200 nM as Yes, and those at or above as No? Much appreciated.

QUERY: For C[C@@H](NC(=O)C(C)(C)C)C(=O)N1CCC(Cn2c(Sc3cc4c(cc3Br)OCCO4)nc3c(N)ncnc32)CC1 [compound 128] , is the recorded IC50 below the cut-off of 200 nM?
RESULT: No

QUERY: Now try CC(C)C(=O)N1CCC(CCn2c(Sc3cc4c(cc3Br)OCO4)nc3c(N)ncnc32)CC1 [compound 25] .
RESULT: Yes

QUERY: Now try Nc1ncnc2c1nc(Sc1cc3c(cc1Br)CCO3)n2CCC1CCN(C=O)CC1 [Example Compound 167] .
RESULT: Yes

QUERY: Now try CC(C)(C)OC(=O)N1CCC(CCn2c(Sc3cc4c(cc3C(F)(F)F)OCC4)nc3c(N)ncnc32)CC1 [Example Compound 192] .
RESULT: No

QUERY: Now try C[C@H](O)C(=O)N1CCCC[C@@H]1CCn1c(Sc2cc3c(cc2Br)OCO3)nc2c(N)ncnc21 [Example Compound 206] .
RESULT: No

QUERY: Now try CS(=O)(=O)N1CCCC(CCn2c(Sc3cc4c(cc3C#N)OCCO4)nc3c(N)ncnc32)C1 (stereo not shown) [compound 52] .
RESULT: Yes

---

# System: purified human Hsp90
# Construct: purified human Hsp90 (Stressgen, SPP-770)
# Experimental protocol: Hsp90 binding assay: displacement of BODIPY-labeled geldanamycin measured by fluorescence polarization
# Conditions used: 5 μM compound; BODIPY-GM 10 nM, Hsp90 30 nM, overnight at room temperature
# Experimental: Binding of the Example Compounds to purified Hsp90 was assayed by measuring the displacement of BODIPY-labeled geldanamycin (BODIPY-GM) from purified human Hsp90, using a fluorescence polarization assay adapted from Kim et al. (J. Biomolec. Screening, 9(5):375-381 (2004)). […] Parallel and perpendicular fluorescence measurements were read (Analyst AD plate reader; LJL BioSystems, Middletown, Conn.) with excitation/emission wavelengths of 485/530 nm. […]
Property measured: GM displacement from purified Hsp90 measured by FP Inhibition by 5 μM compd. (%)
Give the number; % is assumed, so skip it.

QUERY: Any idea what GM displacement from purified Hsp90 measured by FP Inhibition by 5 μM compd. (%) was measured for CC(C)(C)[C@H](O)C(=O)N1CCC(CCn2cnc(N)c3nc(Sc4cc5c(cc4Br)OCCO5)nc2-3)CC1 ?
RESULT: 59.0

QUERY: Now try COc1ccc(C#N)c(Sc2nc3c(N)ncn(CCC4CCN(C=O)CC4)c-3n2)c1 .
RESULT: 34.0

QUERY: Now try C[C@H](O)C(=O)N1CCC(CCn2cnc(N)c3nc(Sc4cc5c(cc4C#N)OCO5)nc2-3)CC1 .
RESULT: 13.0

QUERY: Now try Nc1ncn(CCC2CCN(C=O)CC2)c2nc(Sc3cc4c(cc3[N+](=O)[O-])OCO4)nc1-2 .
RESULT: 25.0

QUERY: Now try CCC(=O)N1CCC(CCn2cnc(N)c3nc(Sc4cc5c(cc4C#N)C(=O)CC5)nc2-3)CC1 .
RESULT: 18.0

QUERY: Now try CC(C)C(=O)N1CCC(CCn2cnc(N)c3nc(Sc4cc5c(cc4Br)OCCO5)nc2-3)CC1 .
RESULT: 28.0

QUERY: Now try C[C@H](O)C(=O)N1CCC(CCn2cnc(N)c3nc(Sc4cc5c(cc4C#N)OCCO5)nc2-3)CC1 .
RESULT: 27.0

QUERY: Now try COc1ccc(OC(F)(F)F)c(Sc2nc3c(N)ncn(CCC4CCN(C(=O)CO)CC4)c-3n2)c1 .
RESULT: 18.0

QUERY: Now try N#Cc1cc2c(cc1Sc1nc3c(N)ncn(CCC4CCN(C=O)CC4)c-3n1)CCC2=O .
RESULT: 24.0

QUERY: Now try C[C@H](O)C(=O)N1CCC(CCn2cnc(N)c3nc(Sc4cc5c(cc4Br)CCC5)nc2-3)CC1 .
RESULT: 58.0

QUERY: Now try N#Cc1cc2c(cc1Sc1nc3c(N)ncn(CCC4CCN(C(=O)C5CC5(F)F)CC4)c-3n1)OCO2 (stereo not shown) .
RESULT: 33.0

QUERY: Now try Cn1nnnc1N1CCC(CCn2cnc(N)c3nc(Sc4cc5c(cc4Br)OCCO5)nc2-3)CC1 .
RESULT: 46.0

QUERY: Now try COc1cc(OC)c(Cl)c(Sc2nc3c(N)ncn(CC4CCCN(C(=O)[C@H](C)NC(=O)OC(C)(C)C)C4)c-3n2)c1 (stereo partly shown) .
RESULT: 12.0

QUERY: Now try N#Cc1cc2c(cc1Sc1nc3c(N)ncn(CCC4CCN(C(=O)[C@@H](N)C(F)(F)F)CC4)c-3n1)OCO2 .
RESULT: 9.0

QUERY: Now try Nc1ncn(CCC2CCN(C(=O)CO)CC2)c2nc(Sc3cc4c(cc3Br)OCCO4)nc1-2 .
RESULT: 32.0

QUERY: Now try COCC(=O)N1CCC(CCn2cnc(N)c3nc(Sc4cc5c(cc4C#N)OCO5)nc2-3)CC1 .
RESULT: 88.0

QUERY: Now try COc1ccc(Br)c(Sc2nc3c(N)ncn(CCC4CCN(C(=O)CO)CC4)c-3n2)c1 .
RESULT: 10.0

QUERY: Now try CCCN1CCCCC1CCn1cnc(N)c2nc(Sc3cc4c(cc3Br)OCCO4)nc1-2 (stereo not shown) .
RESULT: 73.0

QUERY: Now try CS(=O)(=O)N1CCC(CCn2cnc(N)c3nc(Sc4cc5c(cc4Br)OCCO5)nc2-3)CC1 .
RESULT: 33.0

QUERY: Now try Nc1ncn(CCC2CCN(C=O)CC2)c2nc(Sc3cc(O)c(O)cc3Br)nc1-2 .
RESULT: 87.0

QUERY: Now try CN(C)C(CCn1cnc(N)c2nc(Sc3cc4c(cc3Br)OCCO4)nc1-2)C1CC1 (stereo not shown) .
RESULT: 27.0

QUERY: Now try COc1ccc(OC(F)(F)F)c(Sc2nc3c(N)ncn(CCC4CCN(C=O)CC4)c-3n2)c1 .
RESULT: 14.0

QUERY: Now try CS(=O)(=O)N1CCC(CCn2cnc(N)c3nc(Sc4cc5c(cc4C#N)OCCO5)nc2-3)CC1 .
RESULT: 26.0

QUERY: Now try CC(=O)N1CCC(CCn2cnc(N)c3nc(Sc4cc5c(cc4[N+](=O)[O-])OCO5)nc2-3)CC1 .
RESULT: 23.0

QUERY: Now try COc1ccc(Br)c(Sc2nc3c(N)ncn(CCC4CCN(C(C)=O)CC4)c-3n2)c1 .
RESULT: 10.0

QUERY: Now try N#CCCN1CCC(CCn2cnc(N)c3nc(Sc4cc5c(cc4Br)OCO5)nc2-3)CC1 .
RESULT: 9.0

QUERY: Now try CS(=O)(=O)N1CCCC(CCn2cnc(N)c3nc(Sc4cc5c(cc4C#N)OCO5)nc2-3)C1 (stereo not shown) .
RESULT: 77.0

QUERY: Now try Nc1ncn(CCC2CCN(C=O)CC2)c2nc(Sc3cc4c(cc3Br)C(=O)CC4)nc1-2 .
RESULT: 20.0

QUERY: Now try CO[C@H](C)C(=O)N1CCC(CCn2cnc(N)c3nc(Sc4cc5c(cc4C#N)OCO5)nc2-3)CC1 .
RESULT: 35.0

QUERY: Now try CO[C@@H](C)C(=O)N1CCC(CCn2cnc(N)c3nc(Sc4cc5c(cc4C#N)OCO5)nc2-3)CC1 .
RESULT: 36.0

QUERY: Now try CS(=O)(=O)N1CCCC(CCn2cnc(N)c3nc(Sc4cc5c(cc4C#N)OCCO5)nc2-3)C1 (stereo not shown) .
RESULT: 60.0
